Values from patent US10517889B2

Quick list: % inhibition of SMAD7 mRNA expression per entry.
System: human SMAD7 mRNA
Experiment: Antisense inhibition of human SMAD7 mRNA expression in Hep3B cells by 3-10-3 cEt gapmers, 10,000 nM, electroporation (Example 2)
Assay type: cell-based
Settings: Hep3B cells, electroporation with 10,000 nM antisense oligonucleotide, approximately 24 hours, primer probe set RTS5062, relative to untreated control cells
Strand notation (5' to 3'): a small letter for the sugar, then the base; units joined by * are phosphorothioate-linked, units joined directly phosphodiester-linked; [ ] holds rarer units or linkages, { } end groups; capitals alone tell only the bases. k = constrained ethyl (cEt); [5mC] = 5-methylcytosine; d = 2'-deoxy (DNA)
Respond numerically; units are % and should not be typed.

>  <substance>
799166 (antisense kA*kA*k[5mC]*dA*dG*dT*dG*dT*d[5mC]*dG*dA*dA*dG*kT*kA*kT) [compound 799166]

>  <measured target>
human SMAD7 mRNA

>  <property measured>
% inhibition of SMAD7 mRNA expression

>  <number>
21

$$$$
>  <substance>
799483 (antisense k[5mC]*kA*kA*dA*dG*dG*dA*dA*dA*dA*dG*d[5mC]*d[5mC]*kG*kG*kG) [compound 799483]

>  <measured target>
human SMAD7 mRNA

>  <property measured>
% inhibition of SMAD7 mRNA expression

>  <number>
35

$$$$
>  <substance>
799172 (antisense kA*kA*k[5mC]*dA*dT*dG*d[5mC]*dT*d[5mC]*dA*dT*dT*dG*kA*kG*k[5mC]) [compound 799172]

>  <measured target>
human SMAD7 mRNA

>  <property measured>
% inhibition of SMAD7 mRNA expression

>  <number>
4

$$$$
>  <substance>
798688 (antisense kG*kT*k[5mC]*d[5mC]*dT*dG*dA*dA*d[5mC]*dA*dT*dG*d[5mC]*kG*kG*kG) [compound 798688]

>  <measured target>
human SMAD7 mRNA

>  <property measured>
% inhibition of SMAD7 mRNA expression

>  <number>
68

$$$$
>  <substance>
799216 (kT*kA*kT*dT*dA*dA*dA*dG*d[5mC]*dA*dA*dA*dG*kT*kG*k[5mC]; antisense) [compound 799216]

>  <measured target>
human SMAD7 mRNA

>  <property measured>
% inhibition of SMAD7 mRNA expression

>  <number>
49

$$$$

For 799457 (antisense k[5mC]*kA*k[5mC]*dG*dA*dT*dA*dG*dT*d[5mC]*dT*d[5mC]*dA*kG*k[5mC]*kA) [compound 799457] on human SMAD7 mRNA, measured % inhibition of SMAD7 mRNA expression was 62

The reported % inhibition of SMAD7 mRNA expression value, human SMAD7 mRNA, for 799048 (antisense kT*k[5mC]*k[5mC]*dT*dT*dG*dA*dT*dG*dA*dG*dG*dG*kA*kG*kA) [compound 799048] reads 60

Field % inhibition of SMAD7 mRNA expression (human SMAD7 mRNA), entry 772708 (kA*kA*kA*dG*dT*dG*d[5mC]*dA*dT*d[5mC]*dT*dT*dT*kT*k[5mC]*kT; antisense) [compound 772708] : 0

% inhibition of SMAD7 mRNA expression of 799436 (antisense kA*kG*k[5mC]*d[5mC]*dA*dT*dT*d[5mC]*d[5mC]*dT*d[5mC]*dA*dA*kA*k[5mC]*k[5mC]) [compound 799436] , assay on human SMAD7 mRNA, is 4

Bench note, human SMAD7 mRNA: entry 799066 (antisense kT*kG*kA*dA*dA*dA*dT*dA*dA*dT*dT*dG*dG*kT*kT*k[5mC]) [compound 799066] , its % inhibition of SMAD7 mRNA expression = 0

Response field % inhibition of SMAD7 mRNA expression (human SMAD7 mRNA) for item 799067 (antisense kG*kG*kA*dT*dG*dA*dA*dA*dA*dT*dA*dA*dT*kT*kG*kG) [compound 799067] : 74

Summary: 799051 (antisense kT*kG*kG*dA*d[5mC]*dA*dG*dG*d[5mC]*d[5mC]*d[5mC]*dG*dT*kG*kT*k[5mC]) [compound 799051] , human SMAD7 mRNA, % inhibition of SMAD7 mRNA expression = 32

Entry 799339 (kG*kA*kT*dA*d[5mC]*d[5mC]*d[5mC]*dA*dG*dT*dT*d[5mC]*dG*kG*k[5mC]*k[5mC]; antisense) [compound 799339] , human SMAD7 mRNA data, % inhibition of SMAD7 mRNA expression value: 18
